- Test system: A2780 cells
- TEST DETAILS: Cell proliferation assay (A2780)
- Assay type: cell-based
- CONDITIONS USED: Homo sapiens, 168 h, 7 days
- Description: Cells are counted, diluted to desired density and 40 μL of cell suspension is added into each 384-well tissue-culture treated plates. Plates are incubated in Tissue Culture incubator at 37° C./5% C02 overnight. Next day, 40 nl test compounds that are prepared from source plates are transferred to the seeded cells from overnight. Plates are incubated at 37° C./5% C02 for a total of 7 days. […]
pIC50: −log10 of the molar value.
Listed compounds paired with reported pIC50
ASSAY METRIC: pIC50

>>> reported("O=C(CN1CCC(OC2CCN(C(=O)c3c(F)cc(-c4cccnn4)cc3F)CC2)CC1)N1CCN(C(=O)c2cc(Cc3n[nH]c(=O)c4ccccc34)ccc2F)CC1")
"6.00 to 7.00"
>>> reported("CC(C)(C)OC(=O)N[C@@H](C(=O)N1CC[C@H](OC2CCN(CC(=O)N3CCN(C(=O)c4cc(Cc5n[nH]c(=O)c6ccccc56)ccc4F)CC3)CC2)C1)C1CCCCC1")
"6.00 to 7.00"
>>> reported("O=C(CN1CCN(C[C@@H]2C[C@@H]3CC[C@H]2CN3C(=O)c2c(F)cc(-c3ccccc3)cc2F)CC1)N1CCN(C(=O)c2cc(Cc3n[nH]c(=O)c4ccccc34)ccc2F)CC1")
"7.00 to 8.00"
>>> reported("CCc1cccc(-c2cnc(C(=O)N3CCC(CN4CCN(CC(=O)N5CCN(C(=O)c6cc(Cc7n[nH]c(=O)c8ccccc78)ccc6F)CC5)CC4)CC3)c(N)c2)c1")
"6.00 to 7.00"
>>> reported("CCc1cccc(-c2cc(F)c(C(=O)N3CC4CCC3CC4CN3CCN(CC(=O)N4CCN(C(=O)c5cc(Cc6n[nH]c(=O)c7ccccc67)ccc5F)CC4)CC3)c(F)c2)c1 (stereo not shown)")
"6.00 to 7.00"
>>> reported("O=C(CN1CCC(OC2CCN(C(=O)c3c(F)cc(-c4ccnnc4)cc3F)CC2)CC1)N1CCN(C(=O)c2cc(Cc3n[nH]c(=O)c4ccccc34)ccc2F)CC1")
"6.00 to 7.00"
>>> reported("CCOc1cc(OC)ccc1CNCC(=O)N1CCCC(c2ccc(F)c(C(=O)N[C@@H](C(=O)N3CCN(CC4CCN(CC(=O)N5CCN(C(=O)c6cc(Cc7n[nH]c(=O)c8ccccc78)ccc6F)CC5)CC4)CC3)C3CCCCC3)c2)C1 (stereo partly shown)")
"6.00 to 7.00"
>>> reported("CCOc1cc(OC)ccc1CNCC(=O)N1CCCC(c2cccc(C(=O)N[C@@H](C(=O)N3CCN(CC4CCN(CC(=O)N5CCN(C(=O)c6cc(Cc7n[nH]c(=O)c8ccccc78)ccc6F)CC5)CC4)CC3)C3CCCCC3)c2)C1 (stereo partly shown)")
"5.00 to 6.00"
>>> reported("CC(C)(C)OC(=O)N[C@@H](C(=O)N1CCC(OC2CCN(CC(=O)N3CCN(C(=O)c4cc(Cc5n[nH]c(=O)c6ccccc56)ccc4F)CC3)CC2)CC1)C1CCCCC1")
"7.00 to 8.00"
>>> reported("CCc1cccc(-c2cnc(C(=O)NCCOCCNCC(=O)N3CCN(C(=O)c4cc(Cc5n[nH]c(=O)c6ccccc56)ccc4F)CC3)c(N)c2)c1")
"7.00 to 8.00"
>>> reported("O=C(CN1CCN(CC2CCN(C(=O)c3c(F)cc(-c4cnccn4)cc3F)CC2)CC1)N1CCN(C(=O)c2cc(Cc3n[nH]c(=O)c4ccccc34)ccc2F)CC1")
"6.00 to 7.00"
>>> reported("CCc1cccc(-c2cnc(C(=O)N3CCC(CN4CCN(CC(=O)N5CCN(C(=O)c6cc(Cc7n[nH]c(=O)c8ccccc78)ccc6F)CC5)CC4)CC3)c(OC(F)(F)F)c2)c1")
"6.00 to 7.00"
>>> reported("CCc1cccc(-c2cc(F)c(C(=O)N3CCC(OC4CCN(CC(=O)N5CCN(C(=O)c6cc(Cc7n[nH]c(=O)c8ccccc78)ccc6F)CC5)CC4)CC3)c(F)c2)c1")
"> 8.00"
>>> reported("CCc1cccc(-c2cnc(C(=O)N3CCC(CN4CCN(CC(=O)N5CCN(C(=O)c6cc(Cc7n[nH]c(=O)c8ccccc78)ccc6F)CC5)CC4)CC3)c(NC3CC3)c2)c1")
"7.00 to 8.00"
>>> reported("CCc1cccc(-c2cnc(C(=O)NCCOCCNCC(=O)N3CCN(C(=O)c4cc(Cc5n[nH]c(=O)c6ccccc56)ccc4F)CC3)c(NC(C)=O)c2)c1")
"7.00 to 8.00"
>>> reported("O=C(N[C@@H](C(=O)N1CCC(OC2CCN(CC(=O)N3CCN(C(=O)c4cc(Cc5n[nH]c(=O)c6ccccc56)ccc4F)CC3)CC2)CC1)C1CCCCC1)c1cccc(C2CCCN(C(=O)C3CC3)C2)c1F (stereo partly shown)")
"7.00 to 8.00"
>>> reported("O=C(N[C@@H](C(=O)N1CCN(CC(=O)N2CCN(C(=O)c3cc(Cc4n[nH]c(=O)c5ccccc45)ccc3F)CC2)CC1)C1CCCCC1)c1cccc(C2CCCN(C(=O)CNCc3ccc(F)cc3F)C2)c1 (stereo partly shown)")
"6.00 to 7.00"
>>> reported("C[C@@H]1CN(CC2CCN(CC(=O)N3CCN(C(=O)c4cc(Cc5n[nH]c(=O)c6ccccc56)ccc4F)CC3)CC2)CCN1C(=O)[C@H](NC(=O)c1cccc([C@@H]2CCCN(C(=O)C(C)(C)C)C2)c1)C1CCCCC1")
"6.00 to 7.00"
>>> reported("O=C(CN1CCN(C[C@@H]2C[C@H]3CC[C@@H]2CN3C(=O)c2c(F)cc(-c3ccccc3)cc2F)CC1)N1CCN(C(=O)c2cc(Cc3n[nH]c(=O)c4ccccc34)ccc2F)CC1")
"7.00 to 8.00"

The reported numbers originate from patent US20250127907A1.
